assay: Cytotoxicity against human SKOV3 cells assessed as reduction in cell viability after 48 hrs by neutral red dye-based assay; type: functional; settings: SK-OV-3, 48 h
metric name: IC50

O=Cc1c(O)cc2oc(-c3ccccc3)cc(=O)c2c1O
> 10 µM
O=C1CC(c2ccccc2)Oc2cc(O)cc(O)c21 (racemic)
> 10 µM
O=Cc1c(O)cc(O)c2c1O[C@@H](c1ccccc1)CC2=O
> 10 µM
O=Cc1c(O)cc(O)c(C(=O)/C=C/c2ccccc2)c1O
> 10 µM
O=Cc1c(O)cc2c(c1O)C(=O)C[C@H](c1ccccc1)O2
> 10 µM
O=Cc1c(O)cc(O)c(C(=O)CCc2ccccc2)c1O
> 10 µM
O=Cc1c(O)cc(O)c2c1O[C@H](c1ccccc1)CC2=O
> 10 µM
COc1cccc2c1C(=O)c1c(O)c3c(c(O)c1C2=O)C[C@@](O)(C(=O)CO)C[C@@H]3O[C@H]1C[C@H](N)[C@H](O)[C@H](C)O1 [DOXORUBICIN]
2.6 µM
O=Cc1c(O)cc2c(c1O)C(=O)C[C@@H](c1ccccc1)O2
> 10 µM

====

test system: Pichia kudriavzevii; test: Antimicrobial activity against Candida krusei ATCC 6258 after 46 to 50 hrs by broth microdilution method; format: functional
metric name: IC50 (µM)

O=Cc1c(O)cc(O)c(C(=O)/C=C/c2ccccc2)c1O
34.1
C[C@@H]1[C@H](O)[C@@H](C)/C=C/C=C/C=C/C=C/C=C/C=C/C=C/[C@H](O[C@@H]2O[C@H](C)[C@@H](O)[C@H](N)[C@@H]2O)C[C@@H]2O[C@](O)(C[C@@H](O)C[C@@H](O)[C@H](O)CC[C@@H](O)C[C@@H](O)CC(=O)O[C@H]1C)C[C@H](O)[C@H]2C(=O)O [AMPHOTERICIN B]
0.6
O=C1CC(c2ccccc2)Oc2cc(O)cc(O)c21 (racemic)
65.5

====

test system: Pichia kudriavzevii; experiment: Antimicrobial activity against Candida krusei ATCC 6258 after 46 to 50 hrs by broth microdilution method; assay type: functional
metric name: IC50 (µM)

O=Cc1c(O)cc(O)c2c1O[C@H](c1ccccc1)CC2=O
29.9
O=Cc1c(O)cc2c(c1O)C(=O)C[C@@H](c1ccccc1)O2
33.2
O=Cc1c(O)cc(O)c2c1O[C@@H](c1ccccc1)CC2=O
41.2

====

test system: Nakaseomyces glabratus; assay: Antimicrobial activity against Candida glabrata ATCC 90030 after 46 to 50 hrs by broth microdilution method; assay type: functional; details: Nakaseomyces glabratus, ATCC 90030
metric name: log10(IC50) (log10 of the value in µM)

O=Cc1c(O)cc(O)c2c1O[C@H](c1ccccc1)CC2=O
0.87
O=Cc1c(O)cc2c(c1O)C(=O)C[C@H](c1ccccc1)O2
1.10
O=Cc1c(O)cc(O)c(C(=O)CCc2ccccc2)c1O
1.05
O=Cc1c(O)cc(O)c2c1O[C@@H](c1ccccc1)CC2=O
0.86
C[C@@H]1[C@H](O)[C@@H](C)/C=C/C=C/C=C/C=C/C=C/C=C/C=C/[C@H](O[C@@H]2O[C@H](C)[C@@H](O)[C@H](N)[C@@H]2O)C[C@@H]2O[C@](O)(C[C@@H](O)C[C@@H](O)[C@H](O)CC[C@@H](O)C[C@@H](O)CC(=O)O[C@H]1C)C[C@H](O)[C@H]2C(=O)O [AMPHOTERICIN B]
-0.70
O=Cc1c(O)cc2c(c1O)C(=O)C[C@@H](c1ccccc1)O2
0.83
O=Cc1c(O)cc2oc(-c3ccccc3)cc(=O)c2c1O
1.03
O=C1CC(c2ccccc2)Oc2cc(O)cc(O)c21 (racemic)
1.63
